src = patent US20250320312A1

Catalogue of binders with associated OD450
# system name: T1, Peptide 4: Biotin-AGGGGSGGGGSGGGGSAAA-Tyr-acid (N-terminal biotin; C-terminal acid)
# T1 construct: Control peptide without PC
# T1 peptide: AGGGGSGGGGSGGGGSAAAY
# experiment summary: scFv ELISA
measured metric: OD450 (OD450)

PcOxP_DB03_G12 (scFv, V domains shown, scFv in periplasmic extract) VH: EVQLLESGGGLVQPGGSLRLSCAASGFTFSDYYMEWVRQAPGKGLEWVAASRNKYNDYTTEYADSVKGRFTISRDNSKNTLYLQMNSLRAEDTAVYYCARDYYGSSYWYFDVWGQGTLVTVSS VL: DIVMTQSPDSLAVSLGERATINCKSSESVYSSKHKKHYLAWYQQKPGQPPKLLIYGASNRYIGVPDRFSGSGSGTDFTLTISSLQAEDVAVYYCAQFYSYPLTFGGGTKVEIK :: 0.06
PcOxP_DB04_D10 (scFv, V domains shown, scFv in periplasmic extract) VH: EVQLLESGGGLVQPGGSLRLSCAASGFTGSDFYMEWVRQAPGKGLEWVAASRWKANDYTTEYADSVKGRFTISRDNSKNTLYLQMNSLRAEDTAVYYCARDYYGSSYWYFDVWGQGTLVTVSS VL: DIVMTQSPDSLAVSLGERATINCTASESLYSTKHKVHYLAWYQQKPGQPPKLLIYGASHRYIGVPDRFSGSGSGTDFTLTISSLQAEDVAVYYCAQFYQYPLTFGGGTKVEIK :: 0.05
PcOxP_DB02_F06 (scFv, V domains shown, scFv in periplasmic extract) VH: EVQLLESGGGLVQPGGSLRLSCAASGFTFSDEYMEWVRQAPGKGLEWVAASRNKANDFTTEYADSVKGRFTISRDNSKNTLYLQMNSLRAEDTAVYYCARDFYGSSYWYFDVWGQGTLVTVSS VL: DIVMTQSPDSLAVSLGERATINCTASESIYSSKHKVHYLAWYQQKPGQPPKLLIYGASNRYIGVPDRFSGSGSGTDFTLTISSLQAEDVAVYYCAQFYSYPLTFGGGTKVEIK :: 0.04
PcOxP_DB02_H06 (scFv, V domains shown, scFv in periplasmic extract) VH: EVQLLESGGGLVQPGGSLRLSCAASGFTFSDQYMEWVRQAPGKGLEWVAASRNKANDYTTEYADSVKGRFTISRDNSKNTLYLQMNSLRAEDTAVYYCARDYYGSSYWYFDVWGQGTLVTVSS VL: DIVMTQSPDSLAVSLGERATINCTSSESLYSSKNKVNYLAWYQQKPGQPPKLLIYGASNRYIGVPDRFSGSGSGTDFTLTISSLQAEDVAVYYCAQFYFYPLTFGGGTKVEIK :: 0.05
PcOxP_DB04_B07 (scFv, V domains shown, scFv in periplasmic extract) VH: EVQLLESGGGLVQPGGSLRLSCAASGPTFSDFYMEWVRQAPGKGLEWVAASRNKANGYTTEYADSVKGRFTISRDNSKNTLYLQMNSLRAEDTAVYYCARDYYGSSYWYFDVWGQGTLVTVSS VL: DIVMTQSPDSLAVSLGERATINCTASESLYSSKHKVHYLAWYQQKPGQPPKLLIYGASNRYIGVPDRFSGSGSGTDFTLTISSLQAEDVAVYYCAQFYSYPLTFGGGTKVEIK :: 0.06
